Target: Trypsin (Sus scrofa, UniProt P00761)
Sequence (P00761 whole entry): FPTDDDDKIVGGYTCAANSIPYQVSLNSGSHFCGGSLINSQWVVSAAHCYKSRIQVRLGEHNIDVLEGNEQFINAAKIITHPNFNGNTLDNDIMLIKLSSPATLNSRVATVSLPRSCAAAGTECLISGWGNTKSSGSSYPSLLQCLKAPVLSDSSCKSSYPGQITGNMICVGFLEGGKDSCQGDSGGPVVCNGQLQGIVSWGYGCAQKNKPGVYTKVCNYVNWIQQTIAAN
Test: Inhibition of pig pancreas trypsin type IX-S using Boc-Gln-Ala-Arg-MCA substrate by 7-amino-4-methylcoumarin release based spectrofluorometry
Endpoint: IC50 (nM)

I. CC[C@H](C)[C@H](NC(=O)C(O)CCc1ccc(O)cc1)C(=O)N[C@H](CO)CCCNC(=N)N (some centres undefined)
II. CC(=O)N[C@@H](CC(C)C)C(=O)N[C@@H](CC(C)C)C(=O)N[C@H](C=O)CCCNC(=N)N [LEUPEPTIN]
III. CC[C@H](C)[C@H](NC(=O)C(O)CCc1ccc(O)cc1)C(=O)N[C@H](C=O)CCCNC(=N)N (some centres undefined)
Input: Sort the items above by IC50, starting with the smallest value. Provide the labels, sequenced as the question asks.
Output: III, II, I
(III: 350 nM, II: 500 nM, I: 55000 nM)

Values were extracted from ChEMBL document CHEMBL3351829.
